Source of measurements: patent US20230303690A1

# System tested: T1, human LAG3 expressed on cells (human, UniProt P18627 23-525)
# T1 sequence (looked up): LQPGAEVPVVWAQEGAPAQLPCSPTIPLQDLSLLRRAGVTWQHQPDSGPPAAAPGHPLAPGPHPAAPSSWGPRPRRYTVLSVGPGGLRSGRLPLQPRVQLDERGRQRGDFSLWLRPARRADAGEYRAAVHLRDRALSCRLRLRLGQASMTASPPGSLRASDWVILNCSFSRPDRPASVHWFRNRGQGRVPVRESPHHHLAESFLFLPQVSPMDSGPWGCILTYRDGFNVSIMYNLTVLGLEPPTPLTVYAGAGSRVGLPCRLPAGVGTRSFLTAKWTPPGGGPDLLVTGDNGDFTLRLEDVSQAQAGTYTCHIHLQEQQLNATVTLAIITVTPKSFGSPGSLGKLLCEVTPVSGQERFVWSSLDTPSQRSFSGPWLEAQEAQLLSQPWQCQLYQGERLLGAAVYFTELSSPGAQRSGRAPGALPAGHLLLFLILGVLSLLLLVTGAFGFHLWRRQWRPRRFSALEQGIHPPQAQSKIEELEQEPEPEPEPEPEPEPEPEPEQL
# Protocol notes: cell-based or functional assay
Value kind: IL-2, % of BMS, at 1.234567901 ug/mL (%)
Write the value in % as a bare number.

{"columns": ["Binder", "Value observed"],
 "data": [
  ["sdAb No. 25 (VHH, Fc of the tested form not described; also called sdAb 25; sdAb #25; not shown: Fc part implied by anti-human Fc capture and anti-human IgG Fc detection) VHH: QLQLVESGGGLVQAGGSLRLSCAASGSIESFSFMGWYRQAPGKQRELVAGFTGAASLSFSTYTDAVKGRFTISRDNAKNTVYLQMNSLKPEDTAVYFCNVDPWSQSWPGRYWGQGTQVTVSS", 25.1]
]}

Let us examine a further case.
Entry sdAb No. 21 (VHH, Fc of the tested form not described; also called sdAb 21; not shown: Fc part implied by anti-human Fc capture) VHH: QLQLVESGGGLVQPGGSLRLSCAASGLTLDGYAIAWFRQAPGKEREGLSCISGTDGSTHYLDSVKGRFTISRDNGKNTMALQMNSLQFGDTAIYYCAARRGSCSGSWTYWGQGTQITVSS ; IL-2, % of BMS, at 1.234567901 ug/mL = 27.7
